Vd for assorted compounds
Experiment: clinical
Details: human, in vivo
Description: Observed volume of distribution

| COMPOUND | UNITS_TEXT | Vd |
| --- | --- | --- |
| C[C@]12C=CC(=O)C=C1CC[C@@H]1[C@@H]2[C@@H](O)C[C@@]2(C)[C@H]1CC[C@]2(O)C(=O)CO [PREDNISOLONE] | L/kg | 0.52 |
| Cc1ccccc1OCC(O)CNCCOc1ccc(C(N)=O)cc1 (centres undefined) [TOLAMOLOL] | L/kg | 3.2 |
| CC(C)NCC(O)COc1ccc(CCOCC2CC2)cc1 (centres undefined) [BETAXOLOL] | L/kg | 6.08 |
| CN(C)CCC=C1c2ccccc2CCc2ccccc21 [AMITRIPTYLINE] | L/kg | 8.3 |
| COc1ccc2c(c1)N(C[C@H](C)CN(C)C)c1ccccc1S2 [LEVOMEPROMAZINE] | L/kg | 14 |
| CC(C)NCC(O)COc1cccc2[nH]ccc12 (centres undefined) [PINDOLOL] | L/kg | 2.01 |
| C[C@]12CC[C@H]3[C@@H](CCC4=CC(=O)CC[C@@]43C)[C@@H]1CC[C@@H]2O [TESTOSTERONE] | L/kg | 1.03 |
| Cc1cc(=O)n(-c2ccccc2)n1C [ANTIPYRINE] | L/kg | 0.6 |
| CNCCC=C1c2ccccc2CCc2ccccc21 [NORTRIPTYLINE] | L/kg | 19.1 |

* * *

Assay: clinical
Details: human, in vivo
Listing: log10(Vd) of selected molecules
REPORTED_ENDPOINT: log10(Vd) (log10 of the value in L/kg)

| MOLECULE | log10(Vd) |
| --- | --- |
| CC(C)(C)NC[C@H](O)COc1nsnc1N1CCOCC1 | 0.54 |
| OCCN1CCN(CCCN2c3ccccc3Sc3ccc(Cl)cc32)CC1 | 1.30 |
| Oc1ncnc2[nH]ncc12 | -0.22 |
| CN(C)CCCN1c2ccccc2Sc2ccc(Cl)cc21 | 1.00 |
| CC(C)NCC(O)c1ccc(NS(C)(=O)=O)cc1 (centres undefined) | -0.05 |
| CN1C(=O)C(O)N=C(c2ccccc2Cl)c2cc(Cl)ccc21 (centres undefined) | 0.18 |
| OC(Cn1cncn1)(Cn1cncn1)c1ccc(F)cc1F | -0.22 |
| Oc1ccc2c(c1)[C@@]13CCCC[C@@]1(O)[C@@H](C2)N(CC1CCC1)CC3 | 0.94 |
| C=CCc1ccccc1OCC(O)CNC(C)C (centres undefined) | 0.51 |
| NC12CC3CC(CC(C3)C1)C2 | 0.82 |
| CN(C)CCCN1c2ccccc2CCc2ccccc21 | 1.32 |
| COc1ccc2c3c1O[C@H]1[C@@H](O)C=C[C@H]4[C@@H](C2)N(C)CC[C@@]341 | 0.54 |
| CC(C)(C)NCC(O)COc1cccc2c1C[C@H](O)[C@H](O)C2 (some centres undefined) | 0.29 |
| COC(=O)[C@H]1[C@@H](OC(=O)c2ccccc2)C[C@@H]2CC[C@H]1N2C | 0.30 |
| CN1CCN2c3ncccc3Cc3ccccc3C2C1 (centres undefined) | 0.68 |
| COc1ccc2c3c1O[C@H]1C[C@@H](O)C=C[C@@]31CCN(C)C2 | 0.39 |
| Cn1c(=O)c2[nH]cnc2n(C)c1=O.O | -0.24 |
| CN/C(=N/CCSCc1nc[nH]c1C)NC#N | 0.00 |
| CNCCCN1c2ccccc2CCc2ccccc21 | 1.30 |
| CC(CN(C)C)CN1c2ccccc2CCc2ccccc21 (centres undefined) | 1.49 |
| COc1ccc([C@@H]2Sc3ccccc3N(CCN(C)C)C(=O)[C@@H]2OC(C)=O)cc1.Cl [DILTIAZEM HYDROCHLORIDE] | 0.49 |
| COc1cc2c(c(OC)c1OC)-c1ccc(OC)c(=O)cc1[C@@H](NC(C)=O)CC2 | 0.72 |
| Cc1cn([C@H]2C[C@H](N=[N+]=[N-])[C@@H](CO)O2)c(=O)[nH]c1=O | 0.23 |
| COc1ccc(C(CN(C)C)C2(O)CCCCC2)cc1 (centres undefined) | 0.64 |
